Hi there, I'd appreciate the recorded Fold Induction Over DMSO control for every entry that follows.
# Tested on: WM115 (Melanoma) human cancer cell line
# Details: WM115, 1 μM, three days
Square brackets hold non-standard residues; d marks the D form. Peptide text beside a SMILES is read from it. Phe(4-Br) = N[C@@H](Cc1ccc(Br)cc1)C(=O)O; NMeF = CN[C@@H](Cc1ccccc1)C(=O)O; NMeL = CN[C@@H](CC(C)C)C(=O)O
Answers are plain numbers.

Consider the worked cases shown below.
{"Molecule": "CC(C)C[C@@H]1NC(=O)[C@H](CC(C)C)NC(=O)[C@H](Cc2ccccc2)N(C)C(=O)[C@H](CC(C)C)NC(=O)[C@H](C(C)C)NC1=O [Compound 1j] (cyclo([NMeF]LLVL))", "Fold Induction Over DMSO control": 1.75}
{"Molecule": "CC(C)C[C@@H]1NC(=O)[C@H](Cc2ccc(Br)cc2)NC(=O)[C@H](CC(C)C)NC(=O)[C@H](C(C)C)NC(=O)[C@H](CC(C)C)NC1=O [Compound 1a] (cyclo([Phe(4-Br)]LLVL))", "Fold Induction Over DMSO control": 0.85}

Please look at the following molecule next.
# input // lookup Fold Induction Over DMSO control for CC(C)C[C@@H]1NC(=O)[C@H](Cc2ccccc2)NC(=O)[C@H](CC(C)C)N(C)C(=O)[C@H](C(C)C)NC(=O)[C@H](CC(C)C)NC1=O [Compound 1h] (cyclo(FLLV[NMeL]))
# output 1.13

====

Hi there, I'd appreciate the recorded Fold Induction Over DMSO control for every entry that follows.
# Test system: MDA-MB231 (Breast) human cancer cell line
# Details: MDA-MB231, 10 μM, three days
Square brackets hold non-standard residues; d marks the D form. Peptide text beside a SMILES is read from it. NMePhe(4-Br) = CN[C@@H](Cc1ccc(Br)cc1)C(=O)O; Phe(4-Br) = N[C@@H](Cc1ccc(Br)cc1)C(=O)O; NMeF = CN[C@@H](Cc1ccccc1)C(=O)O; NMeL = CN[C@@H](CC(C)C)C(=O)O; NMeV = CN[C@H](C(=O)O)C(C)C
Give bare numbers.

Consider the worked cases shown below.
{"Molecule": "CC(C)C[C@@H]1NC(=O)[C@H](CC(C)C)NC(=O)[C@H](Cc2ccc(Br)cc2)N(C)C(=O)[C@H](CC(C)C)NC(=O)[C@H](C(C)C)NC1=O [Compound 1k] (cyclo([NMePhe(4-Br)]LLVL))", "Tested On": "MDA-MB231 (Breast) human cancer cell line", "Fold Induction Over DMSO control": 0.41}
{"Molecule": "CC(C)C[C@@H]1NC(=O)[C@H](C(C)C)NC(=O)[C@H](CC(C)C)N(C)C(=O)[C@H](CC(C)C)NC(=O)[C@H](Cc2ccccc2)NC1=O [Compound 1d] (cyclo(FL[NMeL]VL))", "Tested On": "MDA-MB231 (Breast) human cancer cell line", "Fold Induction Over DMSO control": 0.91}
{"Molecule": "CC(C)C[C@@H]1NC(=O)[C@H](Cc2ccccc2)NC(=O)[C@H](CC(C)C)NC(=O)[C@H](C(C)C)NC(=O)[C@H](CC(C)C)NC1=O [Compound 1, sansalvamide A peptide] (cyclo(FLLVL))", "Tested On": "MDA-MB231 (Breast) human cancer cell line", "Fold Induction Over DMSO control": 0.69}
{"Molecule": "CC(C)C[C@@H]1NC(=O)[C@H](Cc2ccccc2)NC(=O)[C@H](CC(C)C)NC(=O)[C@H](C(C)C)N(C)C(=O)[C@H](CC(C)C)NC1=O [Compound 1f] (cyclo(FLL[NMeV]L))", "Tested On": "MDA-MB231 (Breast) human cancer cell line", "Fold Induction Over DMSO control": 0.26}

Give Fold Induction Over DMSO control for all molecules that follow.
1. CC(C)C[C@@H]1NC(=O)[C@H](Cc2ccccc2)NC(=O)[C@H](CC(C)C)N(C)C(=O)[C@H](C(C)C)NC(=O)[C@H](CC(C)C)NC1=O [Compound 1h] (cyclo(FLLV[NMeL]))
2. CC(C)C[C@@H]1NC(=O)[C@H](Cc2ccc(Br)cc2)NC(=O)[C@H](CC(C)C)NC(=O)[C@H](C(C)C)N(C)C(=O)[C@H](CC(C)C)NC1=O [Compound 1g] (cyclo([Phe(4-Br)]LL[NMeV]L))
3. CC(C)C[C@@H]1NC(=O)[C@H](Cc2ccc(Br)cc2)NC(=O)[C@H](CC(C)C)NC(=O)[C@H](C(C)C)NC(=O)[C@H](CC(C)C)NC1=O [Compound 1a] (cyclo([Phe(4-Br)]LLVL))
4. CC(C)C[C@@H]1NC(=O)[C@H](CC(C)C)NC(=O)[C@H](Cc2ccccc2)N(C)C(=O)[C@H](CC(C)C)NC(=O)[C@H](C(C)C)NC1=O [Compound 1j] (cyclo([NMeF]LLVL))

# output
1: 0.28; 2: 0.31; 3: 0.60; 4: 0.82

====

Hi there, I'd appreciate the recorded Fold Induction Over DMSO control for every entry that follows.
# Tested on: MDA-MB231 (Breast) human cancer cell line
# Details: MDA-MB231, 1 μM, three days
Square brackets hold non-standard residues; d marks the D form. Peptide text beside a SMILES is read from it. Phe(4-Br) = N[C@@H](Cc1ccc(Br)cc1)C(=O)O; NMeF = CN[C@@H](Cc1ccccc1)C(=O)O; NMeL = CN[C@@H](CC(C)C)C(=O)O
Give bare numbers.

Consider the worked cases shown below.
{"Compound": "CC(C)C[C@@H]1NC(=O)[C@H](Cc2ccccc2)NC(=O)[C@H](CC(C)C)N(C)C(=O)[C@H](C(C)C)NC(=O)[C@H](CC(C)C)NC1=O [Compound 1h] (cyclo(FLLV[NMeL]))", "Tested On": "MDA-MB231 (Breast) human cancer cell line", "Fold Induction Over DMSO control": 1.01}
{"Compound": "CC(C)C[C@@H]1NC(=O)[C@H](Cc2ccc(Br)cc2)NC(=O)[C@H](CC(C)C)NC(=O)[C@H](C(C)C)NC(=O)[C@H](CC(C)C)NC1=O [Compound 1a] (cyclo([Phe(4-Br)]LLVL))", "Tested On": "MDA-MB231 (Breast) human cancer cell line", "Fold Induction Over DMSO control": 0.95}
{"Compound": "CC(C)C[C@@H]1NC(=O)[C@H](C(C)C)NC(=O)[C@H](CC(C)C)N(C)C(=O)[C@H](CC(C)C)NC(=O)[C@H](Cc2ccc(Br)cc2)NC1=O [Compound 1e] (cyclo([Phe(4-Br)]L[NMeL]VL))", "Tested On": "MDA-MB231 (Breast) human cancer cell line", "Fold Induction Over DMSO control": 1.20}

Please look at the following compound next.
# input Please tell me: Fold Induction Over DMSO control of CC(C)C[C@@H]1NC(=O)[C@H](CC(C)C)NC(=O)[C@H](Cc2ccccc2)N(C)C(=O)[C@H](CC(C)C)NC(=O)[C@H](C(C)C)NC1=O [Compound 1j] (cyclo([NMeF]LLVL)) , system MDA-MB231 (Breast) human cancer cell line?
# output 0.78

====

# System: MDA-MB231 (Breast) human cancer cell line
# Details: MDA-MB231, 1 μM, three days
Square brackets hold non-standard residues; d marks the D form. Peptide text beside a SMILES is read from it. Phe(4-Br) = N[C@@H](Cc1ccc(Br)cc1)C(=O)O; Hica(2S) = CC(C)C[C@H](O)C(=O)O; NMeL = CN[C@@H](CC(C)C)C(=O)O; NMeV = CN[C@H](C(=O)O)C(C)C
Quantity: Fold Induction Over DMSO control
Answers are plain numbers.

Consider the worked cases shown below.
{"Molecule": "CC(C)C[C@@H]1NC(=O)[C@H](C(C)C)NC(=O)[C@H](CC(C)C)OC(=O)[C@H](CC(C)C)NC(=O)[C@H](Cc2ccccc2)NC1=O [Sansalvamide A, reference compound] (cyclo(FL[Hica(2S)]VL))", "Tested On": "MDA-MB231 (Breast) human cancer cell line", "Fold Induction Over DMSO control": 0.90}
{"Molecule": "CC(C)C[C@@H]1NC(=O)[C@H](Cc2ccc(Br)cc2)NC(=O)[C@H](CC(C)C)NC(=O)[C@H](C(C)C)N(C)C(=O)[C@H](CC(C)C)NC1=O [Compound 1g] (cyclo([Phe(4-Br)]LL[NMeV]L))", "Tested On": "MDA-MB231 (Breast) human cancer cell line", "Fold Induction Over DMSO control": 0.88}
{"Molecule": "CC(C)C[C@@H]1NC(=O)[C@H](C(C)C)NC(=O)[C@H](CC(C)C)NC(=O)[C@H](CC(C)C)N(C)C(=O)[C@H](Cc2ccccc2)NC1=O [Compound 1b] (cyclo(F[NMeL]LVL))", "Tested On": "MDA-MB231 (Breast) human cancer cell line", "Fold Induction Over DMSO control": 0.87}

Give Fold Induction Over DMSO control for all molecules that follow.
1. CC(C)C[C@@H]1NC(=O)[C@H](C(C)C)NC(=O)[C@H](CC(C)C)N(C)C(=O)[C@H](CC(C)C)NC(=O)[C@H](Cc2ccccc2)NC1=O [Compound 1d] (cyclo(FL[NMeL]VL))
2. CC(C)C[C@@H]1NC(=O)[C@H](C(C)C)NC(=O)[C@H](CC(C)C)NC(=O)[C@H](CC(C)C)N(C)C(=O)[C@H](Cc2ccc(Br)cc2)NC1=O [Compound 1c] (cyclo([Phe(4-Br)][NMeL]LVL))

# output
1: 1.09; 2: 0.56
